experiment.description: NCI Yeast Anticancer Drug Screen. Data for the rad50 strain (AID 155);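 further: 0% = growth of vehicle-only cultures of the same strain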
cond: S. cerevisiae rad50 strain growth inhibition; at 50.0 µM
About 79,000 compounds went through this panel and 15% of them were active in at least one assay; those are over-represented in the sample as a whole. Active and inactive are the calls of the source. No stated cut-off is given here; in the data, active means growth inhibition above about 70%; inactive means the rest.
Response enum: 1 = active, 0 = inactive

See these solved cases before continuing.
Task: Would you mind telling me which call this test gave COc1ccc2cc1Oc1ccc(cc1)CC1c3c(cc(OC)c4c3Oc3cc5c(cc3O4)CCNC5C2)CCN1C (stereo unspecified) ?
Output: 0

Task: Would you mind telling me which call this test gave O=C1NNC=Nc2ccc(cc2)S(=O)(=O)c2ccc(cc2)N=CNNC1=O ?
Output: 0

Task: Would you mind telling me which call this test gave CCOC(=O)CS ?
Output: 0

Task: Would you mind telling me which call this test gave O=C1CCC(C2(O)c3ccccc3-c3ccccc32)C(=O)N1 (stereo unspecified) ?
Output: 0

Task: Would you mind telling me which call this test gave O=C1C/C(=C/c2ccccc2[N+](=O)[O-])C(=O)N1c1ccccc1 ?
Output: 0

Task: Would you mind telling me which call this test gave O=C(Cc1ccccc1)NCc1ccc(Cl)cc1 ?
Output: 0

More entries:
Task: Would you mind telling me which call this test gave O=C1OC(=O)C(=C(c2ccccc2)c2ccccc2)C1=C(c1ccccc1)c1ccccc1 ?
Output: 0

Task: Would you mind telling me which call this test gave Cn1c(-c2ccccc2)c/c(=N\NS(C)(=O)=O)c2cc(S(=O)(=O)O)ccc21 ?
Output: 0

Task: Would you mind telling me which call this test gave O=C(OCc1ccccc1)c1ccccc1-c1c2ccc(=O)cc-2oc2cc(OCc3ccccc3)ccc12 ?
Output: 0

----------
experiment.description: NCI Yeast Anticancer Drug Screen. Data for the mec2-1 strain (AID 157)
cond: S. cerevisiae mec2-1 strain, at 50.0 µM, stronger effect = higher value
About 79,000 compounds went through this panel and 15% of them were active in at least one assay; those are over-represented in the sample as a whole.
measurement.label: growth inhibition (%)
Please give a number only; it is taken to be in %.

Below, each entry is followed by its recorded growth inhibition result.
Task: Recorded growth inhibition for O=C(/C=N\O)c1ccccc1[N+](=O)[O-] , please?
Output: -4.85

Task: Recorded growth inhibition for NCC1CC1 , please?
Output: -2.25

Task: Recorded growth inhibition for O=C(O)C(CCC1CCC=CCC1)C(=O)O , please?
Output: -6.7

More entries:
Task: Recorded growth inhibition for CC1(C)CC(=O)C=C(NCCCCCCCCNC2=CC(=O)CC(C)(C)C2)C1 , please?
Output: 19.8

Task: Recorded growth inhibition for O=C(c1ccccc1)C(O)(c1ccccc1)C1CCCC/C1=N\N(c1ccccc1)c1ccccc1 (stereo not drawn) , please?
Output: 31.4

Task: Recorded growth inhibition for COC(=O)C1=C(C)NC(C)=C(C(=O)OC)C1c1cccc(NO)c1 , please?
Output: 16.4

Task: Recorded growth inhibition for O=C(Nc1ccccc1[N+](=O)[O-])OCCOc1ccccc1 , please?
Output: 21.2

Task: Recorded growth inhibition for O=C1C=C(Nc2ccccc2C(=O)CC(=O)C(=O)Nc2ccc(Cl)cc2)c2ccccc2C1=O , please?
Output: 0.95

Task: Recorded growth inhibition for S=C(NCCCN1Cc2ccccc2C1)Nc1ccccc1 , please?
Output: -4.1

Task: Recorded growth inhibition for O=[N+]([O-])c1ccc(Sc2ccc([N+](=O)[O-])cc2)cc1 , please?
Output: 1.45

Task: Recorded growth inhibition for C[C@@]1(NC(=O)Cc2ccccc2)C(=O)N2CCS[C@@]21c1ccccc1 , please?
Output: 0.8

This collection of values is drawn from PubChem BioAssay (NCI).
